Catalogue of pKi readings, one per entry.
TARGET: Glucocorticoid receptor (Rattus norvegicus) (UniProt P06536)
Sequence (P06536 whole entry, looked up): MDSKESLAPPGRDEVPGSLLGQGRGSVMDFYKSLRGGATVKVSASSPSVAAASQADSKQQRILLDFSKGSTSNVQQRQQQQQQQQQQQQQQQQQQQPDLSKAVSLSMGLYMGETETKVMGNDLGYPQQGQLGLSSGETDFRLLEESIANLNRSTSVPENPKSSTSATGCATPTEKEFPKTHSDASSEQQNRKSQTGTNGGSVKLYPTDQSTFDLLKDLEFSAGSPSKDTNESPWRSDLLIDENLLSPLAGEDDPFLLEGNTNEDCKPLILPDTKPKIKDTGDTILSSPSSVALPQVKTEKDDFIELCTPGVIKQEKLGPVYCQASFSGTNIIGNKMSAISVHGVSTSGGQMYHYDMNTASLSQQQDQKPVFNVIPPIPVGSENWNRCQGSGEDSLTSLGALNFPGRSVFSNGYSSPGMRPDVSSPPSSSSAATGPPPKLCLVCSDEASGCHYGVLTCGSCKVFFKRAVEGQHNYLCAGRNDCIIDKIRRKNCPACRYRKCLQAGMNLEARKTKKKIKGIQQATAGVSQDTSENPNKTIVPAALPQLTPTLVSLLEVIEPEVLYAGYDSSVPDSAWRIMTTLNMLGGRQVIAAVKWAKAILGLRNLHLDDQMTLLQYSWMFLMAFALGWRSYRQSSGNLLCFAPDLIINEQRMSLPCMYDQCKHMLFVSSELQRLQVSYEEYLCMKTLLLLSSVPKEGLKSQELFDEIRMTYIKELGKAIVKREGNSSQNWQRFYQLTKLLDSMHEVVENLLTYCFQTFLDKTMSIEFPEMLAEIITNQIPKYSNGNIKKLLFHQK
pKi: −log10 of the molar value.
READOUT NAME: pKi

[
  {
    "COMPOUND": "C#C[C@]1(O)CC[C@H]2[C@@H]3CCC4=CC(=O)CCC4=C3[C@@H](c3ccc(N(C)CCOC4CC[C@@]5(C)[C@@H](C4)C[C@@H](O)[C@@H]4[C@@H]5C[C@H](O)[C@]5(C)[C@@H]([C@H](C)CCC(=O)NCCS(=O)(=O)O)CC[C@@H]45)cc3)C[C@@]21C (some centres not stated)",
    "TARGET": "Glucocorticoid receptor (Rattus norvegicus) (UniProt P06536)",
    "RESULT NUMBER": 6.80
  },
  {
    "COMPOUND": "C#C[C@]1(O)CC[C@H]2[C@@H]3CCC4=CC(=O)CCC4=C3[C@@H](c3ccc(N(C)CCOCCO[C@H]4CC[C@@]5(C)[C@@H](C4)C[C@@H](O)[C@@H]4[C@@H]5C[C@H](O)[C@]5(C)[C@@H]([C@H](C)CCC(=O)O)CC[C@@H]45)cc3)C[C@@]21C",
    "TARGET": "Glucocorticoid receptor (Rattus norvegicus) (UniProt P06536)",
    "RESULT NUMBER": 7.25
  },
  {
    "COMPOUND": "C#C[C@]1(O)CC[C@H]2[C@@H]3CCC4=CC(=O)CCC4=C3[C@@H](c3ccc(N(C)CCOC4CC[C@@]5(C)[C@@H](C4)C[C@@H](O)[C@@H]4[C@@H]5C[C@H](O)[C@]5(C)[C@@H]([C@H](C)CCC(=O)NCC(=O)O)CC[C@@H]45)cc3)C[C@@]21C (some centres not stated)",
    "TARGET": "Glucocorticoid receptor (Rattus norvegicus) (UniProt P06536)",
    "RESULT NUMBER": 6.74
  },
  {
    "COMPOUND": "C#C[C@]1(O)CC[C@H]2[C@@H]3CCC4=CC(=O)CCC4=C3[C@@H](c3ccc(N(C)C(=O)CNC(=O)OC4CC[C@@]5(C)[C@@H](C4)C[C@@H](O)[C@@H]4[C@@H]5C[C@H](O)[C@]5(C)[C@@H]([C@H](C)CCC(=O)O)CC[C@@H]45)cc3)C[C@@]21C (some centres not stated)",
    "TARGET": "Glucocorticoid receptor (Rattus norvegicus) (UniProt P06536)",
    "RESULT NUMBER": 6.47
  },
  {
    "COMPOUND": "C#C[C@]1(O)CC[C@H]2[C@@H]3CCC4=CC(=O)CCC4=C3[C@@H](c3ccc(N(C)CCCOC4CC[C@@]5(C)[C@@H](C4)C[C@@H](O)[C@@H]4[C@@H]5C[C@H](O)[C@]5(C)[C@@H]([C@H](C)CCC(=O)O)CC[C@@H]45)cc3)C[C@@]21C (some centres not stated)",
    "TARGET": "Glucocorticoid receptor (Rattus norvegicus) (UniProt P06536)",
    "RESULT NUMBER": 7.00
  },
  {
    "COMPOUND": "C#C[C@]1(O)CC[C@H]2[C@@H]3CCC4=CC(=O)CCC4=C3[C@@H](c3ccc(N(C)CCOC4CC[C@@]5(C)[C@@H](C4)C[C@@H](O)[C@@H]4[C@@H]5C[C@H](O)[C@]5(C)[C@@H]([C@H](C)CCC(=O)O)CC[C@@H]45)cc3)C[C@@]21C (stereo in doubt; form 1)",
    "TARGET": "Glucocorticoid receptor (Rattus norvegicus) (UniProt P06536)",
    "RESULT NUMBER": 6.66
  },
  {
    "COMPOUND": "C#C[C@]1(O)CC[C@H]2[C@@H]3CCC4=CC(=O)CCC4=C3[C@@H](c3ccc(N(C)CCOCCO[C@@H]4CC[C@@]5(C)[C@@H](C4)C[C@@H](O)[C@@H]4[C@@H]5C[C@H](O)[C@]5(C)[C@@H]([C@H](C)CCC(=O)O)CC[C@@H]45)cc3)C[C@@]21C",
    "TARGET": "Glucocorticoid receptor (Rattus norvegicus) (UniProt P06536)",
    "RESULT NUMBER": 7.05
  }
]
